meta.source: patent US20220008382A1

Test: Solubility of the solid dispersion with Eudragit E in 0.1 N HCl (simulated gastric juices)
Format: physicochemical
Settings: simulated gastric fluid, thermodynamic from solid, saturated solution, room temperature, HPLC, read-out: Solubility of taxifolin
Metric: solubility at 60 min (µg/mL)

{"Compound": "O=C1c2c(O)cc(O)cc2O[C@H](c2ccc(O)c(O)c2)[C@H]1O [Taxifolin reference, (+)taxifolin]", "Observed value": 693}

---

Test: Saturation solubility in dist. water (HPLC), β-CD complexes
Type: physicochemical
Details: distilled water, thermodynamic from solid, saturated solution shaken 60 minutes, HPLC DAD-254 nm, read-out: Solubility of taxifolin

{"Compound": "O=C1c2c(O)cc(O)cc2O[C@H](c2ccc(O)c(O)c2)[C@H]1O [Taxifolin reference, (+)taxifolin]", "solubility at 60 min [µg/mL]": 750}
